Catalogue of EC50 readings, one per entry.
target: Heat shock factor protein 1 (Mus musculus); experiment: inhibition of MG132-induced HSE-luciferase signal, confirmation, cell-based, NIH3T3, luminescence, dose retest (AID 2382); format: functional;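 note: NIH3T3 fibroblasts with HSF1-driven luciferase reporter stressed by proteasome inhibitor MG132; luminescence from HSF1-driven luciferase expression after 8 hours of MG132 stress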
Sequence (P38532 whole entry): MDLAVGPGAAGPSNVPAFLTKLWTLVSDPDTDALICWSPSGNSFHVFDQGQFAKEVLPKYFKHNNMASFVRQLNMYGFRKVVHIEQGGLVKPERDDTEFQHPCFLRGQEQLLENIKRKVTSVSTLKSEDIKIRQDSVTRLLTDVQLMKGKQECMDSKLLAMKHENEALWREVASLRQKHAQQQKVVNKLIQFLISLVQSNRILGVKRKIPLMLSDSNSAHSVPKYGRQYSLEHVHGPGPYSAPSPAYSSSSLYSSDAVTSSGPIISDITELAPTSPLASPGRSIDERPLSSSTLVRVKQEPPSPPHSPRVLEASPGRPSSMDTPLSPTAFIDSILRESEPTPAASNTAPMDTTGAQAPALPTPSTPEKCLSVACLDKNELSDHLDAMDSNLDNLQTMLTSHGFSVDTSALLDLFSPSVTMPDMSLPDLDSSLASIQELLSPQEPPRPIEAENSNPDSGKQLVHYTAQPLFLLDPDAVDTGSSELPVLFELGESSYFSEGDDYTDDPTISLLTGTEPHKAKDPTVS
Calls of active or inactive are those of the source. Cut-off read from the data, not from the text of the source: actives have a measured EC50 and inactives only a lower limit.

structure_string	target_entity	EC50
Oc1onc(-c2ccccc2)c1-c1ccccc1	Heat shock factor protein 1 (Mus musculus)	> 195 µM (not active)
CCOC(=O)c1cc2sccc2n1CC(=O)Nc1ccc(OC)cc1	Heat shock factor protein 1 (Mus musculus)	> 195 µM (not active)
CC(C)[C@H](NC(=O)Cc1ccccc1)C(=O)OCc1cc(=O)n2c(n1)sc1ccccc12	Heat shock factor protein 1 (Mus musculus)	21.5 µM (active)
C=C(C)C(=O)O[C@H]1C/C(C)=C\C(=O)/C=C(\C)[C@H](O)[C@@H]2OC(=O)C(=C)[C@@H]21	Heat shock factor protein 1 (Mus musculus)	8.1 µM (active)
Cc1ccc(NC(=O)CN(C)C2CCCCC2)cc1Cl	Heat shock factor protein 1 (Mus musculus)	> 195 µM (not active)
O=C(CSc1ncccn1)NCCc1ccccc1	Heat shock factor protein 1 (Mus musculus)	> 195 µM (not active)

Source listed as ChEMBL document CHEMBL1201862.
